Where these numbers come from: patent US10259807B2

target: hERG K channel (Homo sapiens, UniProt Q12809); construct: host or cells: CHO; test: hERG Q-Patch assay; type: cell-based; settings: concentration 300 nM; CHO cells expressing hERG; K+ tail current 3 min after application; mean of two or three experiments
Sequence (Q12809 whole entry): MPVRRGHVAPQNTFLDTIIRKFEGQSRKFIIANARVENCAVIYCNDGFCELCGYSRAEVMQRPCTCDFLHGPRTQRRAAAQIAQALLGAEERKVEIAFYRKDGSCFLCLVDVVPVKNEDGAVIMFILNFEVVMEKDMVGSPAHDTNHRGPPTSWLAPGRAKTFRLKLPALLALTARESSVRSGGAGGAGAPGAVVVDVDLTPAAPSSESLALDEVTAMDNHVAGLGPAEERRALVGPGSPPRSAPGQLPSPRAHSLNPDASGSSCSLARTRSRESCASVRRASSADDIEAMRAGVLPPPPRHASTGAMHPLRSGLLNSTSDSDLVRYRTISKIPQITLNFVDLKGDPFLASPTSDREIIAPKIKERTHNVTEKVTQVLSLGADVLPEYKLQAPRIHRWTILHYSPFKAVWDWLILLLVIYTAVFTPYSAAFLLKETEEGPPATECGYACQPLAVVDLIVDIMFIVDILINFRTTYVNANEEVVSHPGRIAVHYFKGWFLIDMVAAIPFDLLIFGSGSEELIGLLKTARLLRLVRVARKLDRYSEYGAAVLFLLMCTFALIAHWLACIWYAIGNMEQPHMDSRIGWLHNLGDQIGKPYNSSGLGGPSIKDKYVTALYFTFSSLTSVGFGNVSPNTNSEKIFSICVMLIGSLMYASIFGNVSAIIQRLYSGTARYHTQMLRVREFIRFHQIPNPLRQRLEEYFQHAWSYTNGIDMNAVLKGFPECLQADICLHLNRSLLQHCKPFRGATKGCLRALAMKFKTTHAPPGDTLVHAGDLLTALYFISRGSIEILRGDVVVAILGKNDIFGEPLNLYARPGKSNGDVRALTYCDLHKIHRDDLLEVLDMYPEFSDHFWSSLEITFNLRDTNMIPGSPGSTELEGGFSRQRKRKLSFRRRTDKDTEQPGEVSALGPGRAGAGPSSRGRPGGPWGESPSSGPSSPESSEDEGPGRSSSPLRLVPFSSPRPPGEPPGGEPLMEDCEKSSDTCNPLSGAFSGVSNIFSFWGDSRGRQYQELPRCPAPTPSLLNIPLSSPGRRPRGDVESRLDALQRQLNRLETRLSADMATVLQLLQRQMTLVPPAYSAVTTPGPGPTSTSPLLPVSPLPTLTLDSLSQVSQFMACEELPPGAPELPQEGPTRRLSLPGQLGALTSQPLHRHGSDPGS
Quick reference for % block among some molecules
Write the value in % as a bare number.

Before answering, review these 6 worked examples.
INSERT INTO measurements (molecule, unit_descriptor, observed_measurement) VALUES
  ('Cc1nc(C)n(CC(=O)N2CCN(c3sc(C(F)(F)F)nc3-c3cnc(C4CC4)nc3)C[C@H]2C)n1 [Example 33]', '%', 4),
  ('COc1ncc(-c2nc(C(F)(F)F)sc2N2CCN(C(=O)Cn3nc(C)nc3C)[C@H](C)C2)cn1 [Example 32]', '%', '−6'),
  ('CCOc1ncc(-c2nc(C(F)(F)F)sc2N2CCN(C(=O)Cn3nc(CC)nc3C)[C@H](C)C2)cn1 (single isomer, unassigned) [Example 18]', '%', 3),
  ('Cc1ccc(-c2nc(C(F)(F)F)sc2N2CCN(C(=O)Cn3nc(C)nc3C)[C@H](C)C2)cc1 [Example 8]', '%', 22),
  ('CCOc1ccc(-c2nc(C(F)(F)F)sc2N2CCN(C(=O)Cn3nc(C)nc3C)[C@H](C)C2)cc1 [Example 31]', '%', 6),
  ('CC[C@@H]1CN(c2sc(C(F)(F)F)nc2-c2cnc(C(F)(F)F)nc2)CCN1C(=O)Cn1nc(C)nc1C [Example 51]', '%', 6);

-- ask Give % block only, for CCc1nc(C)nn1CC(=O)N1CCN(c2sc(C(F)(F)F)nc2-c2cnc(C(F)(F)F)nc2)C[C@H]1C (single isomer, unassigned) [Example 47] , using hERG K channel (Homo sapiens, UniProt Q12809) data.
-- reply 5

-- ask Would you please give the reported % block of Cc1nc(C)n(CC(=O)N2CCN(c3sc(C(F)(F)F)nc3-c3cnc(CCN(C)C)nc3)C[C@H]2C)n1 [Example 42] with hERG K channel (Homo sapiens, UniProt Q12809)?
-- reply −3

-- ask Give the observed % block of COc1ccc(-c2nc(C(F)(F)F)sc2N2CCN(C(=O)Cn3nc(C)nc3C)[C@H](C)C2)c(F)c1 [Example 11] for hERG K channel (Homo sapiens, UniProt Q12809).
-- reply 10

-- ask For hERG K channel (Homo sapiens, UniProt Q12809), give % block of the listed molecule: Cc1nc(CO)nn1CC(=O)N1CCN(c2sc(C(F)(F)F)nc2-c2cnc(C(F)(F)F)nc2)C[C@H]1C [Example 44]
-- reply −3

-- ask Determine reported % block for Cc1nc(CO)n(CC(=O)N2CCN(c3sc(C(F)(F)F)nc3-c3cnc(C(F)(F)F)nc3)C[C@H]2C)n1 [Example 45] ; test system: hERG K channel (Homo sapiens, UniProt Q12809).
-- reply 0

-- ask Name the value of % block reported for Cc1nc(C)n(CC(=O)N2CCN(c3sc(C(F)(F)F)nc3-c3ccc(Cl)cc3)C[C@H]2C)n1 [Example 7] when tested on hERG K channel (Homo sapiens, UniProt Q12809).
-- reply 34

-- ask Report measured % block on hERG K channel (Homo sapiens, UniProt Q12809); entry: Cc1nc(C)n(CC(=O)N2CCN(c3sc(C(F)(F)F)nc3-c3ccc4c(c3)CCO4)C[C@H]2C)n1 [Example 40]
-- reply 1

-- ask Provide the reported % block (system: hERG K channel (Homo sapiens, UniProt Q12809)) for CCc1ncc(-c2nc(C(F)(F)F)sc2N2CCN(C(=O)Cn3nc(C)nc3C)[C@H](C)C2)cn1 [Example 43]
-- reply 4
